tested on: KM12; test: NCI 60 panel growth inhibition (SRB), colon cancer; type: cell-based, human; details: KM12, 10 μM
Parameter: GI% (%)
Field: numeric (%). Do not append units.

CNC(=O)c1nn(C)c2c1C(C)(C)Cc1cnc(Nc3ccc(N4CCN(C)CC4)cc3)nc1-2 [Milciclib, reference compound] = 99.4

Look up GI% with KM12 for this compound: COc1ccc2c(c1)C(=NNC(=O)COc1c(OC)cccc1-c1nc3ccccc3s1)C(=O)N2
8.46

Look up GI% with KM12 for this compound: COc1cccc(-c2nc3ccccc3s2)c1OCC(=O)NN=C1C(=O)Nc2ccc(Br)cc21
12.55

Look up GI% with KM12 for this compound: COc1cccc(-c2nc3ccccc3s2)c1OCC(=O)NN=C1C(=O)Nc2ccccc21
8.64

Look up GI% with KM12 for this compound: COc1cccc(-c2nc3ccccc3s2)c1OCC(=O)NN=C1C(=O)Nc2ccc([N+](=O)[O-])cc21
5.79

Look up GI% with KM12 for this compound: O=C(COc1ccccc1-c1nc2ccccc2s1)NN=C1C(=O)Nc2ccccc21
6.23

Look up GI% with KM12 for this compound: COc1cccc(-c2nc3ccccc3s2)c1OCC(=O)NN=C1C(=O)Nc2ccc(C)cc21
8.90

----------
Test system: SN12C
Assay: NCI 60 panel growth inhibition (SRB), renal cancer
Format: cell-based, human
Details: 10 μM
Experimental: Screening of cytotoxic activity against a panel of sixty human tumor cell lines The selected compounds by NCI were evaluated for their anticancer activity in a two- stage process. […] Using the seven absorbance measurements [time zero, (Tz), control growth, (C), and test growth in the presence of drug at the five concentration levels (Ti)], the percentage growth is calculated at each of the drug concentrations levels. […] Three dose response parameters are calculated for each experimental agent. […]
Record 1 whenever GI% is at 20% or higher; record -1 when lower.

COc1cccc(-c2nc3ccccc3s2)c1OCC(=O)NN=C1C(=O)Nc2ccccc21 = -1
COc1ccc2c(c1)C(=NNC(=O)COc1ccccc1-c1nc3ccccc3s1)C(=O)N2 = -1
COc1ccc2c(c1)C(=NNC(=O)COc1c(OC)cccc1-c1nc3ccccc3s1)C(=O)N2 = -1

Is GI% at least 20%? Consider COc1ccc(-c2nc3ccccc3s2)cc1OCC(=O)NN=C1C(=O)Nc2ccc(C)cc21
-1

Is GI% at least 20%? Consider COc1ccc(-c2nc3ccccc3s2)cc1OCC(=O)NN=C1C(=O)Nc2ccc([N+](=O)[O-])cc21
1

----------
test system: RXF 393; assay: NCI 60 panel growth inhibition (SRB), renal cancer; format: cell-based, human; settings: RXF 393, 10 μM
Measured GI% of individual entries
Field: numeric (%). Do not append units.

COc1ccc(-c2nc3ccccc3s2)cc1OCC(=O)NN=C1C(=O)Nc2ccc(Br)cc21 = 15.08

Look up GI% with RXF 393 for this molecule: COc1cccc(-c2nc3ccccc3s2)c1OCC(=O)NN=C1C(=O)Nc2ccc(Cl)cc21
37.81

Look up GI% with RXF 393 for this molecule: O=C(COc1ccccc1-c1nc2ccccc2s1)NN=C1C(=O)Nc2ccccc21
5.86

Look up GI% with RXF 393 for this molecule: COc1cccc(-c2nc3ccccc3s2)c1OCC(=O)NN=C1C(=O)Nc2ccc(Br)cc21
14.21

----------
tested on: IGROV1; assay: NCI 60 panel growth inhibition (SRB), ovarian cancer; format: cell-based, human; conditions: IGROV1, 10 μM
Parameter: GI%

Example results:
O=C(COc1ccccc1-c1nc2ccccc2s1)NN=C1C(=O)Nc2ccccc21 = – (GI% < 5%)
COc1cccc(-c2nc3ccccc3s2)c1OCC(=O)NN=C1C(=O)Nc2ccc(Br)cc21 = 11.35%
O=C(COc1ccccc1-c1nc2ccccc2s1)NN=C1C(=O)Nc2ccc(Cl)cc21 = – (GI% < 5%)
COc1cccc(-c2nc3ccccc3s2)c1OCC(=O)NN=C1C(=O)Nc2ccc([N+](=O)[O-])cc21 = – (GI% < 5%)
COc1ccc2c(c1)C(=NNC(=O)COc1c(OC)cccc1-c1nc3ccccc3s1)C(=O)N2 = – (GI% < 5%)

What value of measured GI% is listed for COc1ccc2c(c1)C(=NNC(=O)COc1cc(-c3nc4ccccc4s3)ccc1OC)C(=O)N2 ?
18.68%

----------
tested on: ACHN; assay: NCI 60 panel growth inhibition (SRB), renal cancer; format: cell-based, human; settings: 10 μM
Record condition met whenever GI% is at 20% or higher; record condition not met when lower.

// below: answered compounds
COc1cccc(-c2nc3ccccc3s2)c1OCC(=O)NN=C1C(=O)Nc2ccc(Br)cc21 [Compound 9l] = condition met
O=C(COc1ccccc1-c1nc2ccccc2s1)NN=C1C(=O)Nc2ccc(Cl)cc21 [Compound 9e] = condition not met
COc1ccc2c(c1)C(=NNC(=O)COc1cc(-c3nc4ccccc4s3)ccc1OC)C(=O)N2 [Compound 9o] = condition met
COc1cccc(-c2nc3ccccc3s2)c1OCC(=O)NN=C1C(=O)Nc2ccccc21 [Compound 9g] = condition not met
COc1ccc(-c2nc3ccccc3s2)cc1OCC(=O)NN=C1C(=O)Nc2ccc(C)cc21 [Compound 9n] = condition not met
O=C(COc1ccccc1-c1nc2ccccc2s1)NN=C1C(=O)Nc2ccc(Br)cc21 [Compound 9f] = condition met
COc1ccc(-c2nc3ccccc3s2)cc1OCC(=O)NN=C1C(=O)Nc2ccc(Cl)cc21 [Compound 9q] = condition met
COc1ccc2c(c1)C(=NNC(=O)COc1c(OC)cccc1-c1nc3ccccc3s1)C(=O)N2 [Compound 9i] = condition not met

Is GI% at least 20%? Consider COc1ccc2c(c1)C(=NNC(=O)COc1ccccc1-c1nc3ccccc3s1)C(=O)N2 [Compound 9c]
condition not met

Is GI% at least 20%? Consider CNC(=O)c1nn(C)c2c1C(C)(C)Cc1cnc(Nc3ccc(N4CCN(C)CC4)cc3)nc1-2 [Milciclib, reference compound]
condition met

Is GI% at least 20%? Consider Cc1ccc2c(c1)C(=NNC(=O)COc1ccccc1-c1nc3ccccc3s1)C(=O)N2 [Compound 9b]
condition met

Is GI% at least 20%? Consider COc1cccc(-c2nc3ccccc3s2)c1OCC(=O)NN=C1C(=O)Nc2ccc([N+](=O)[O-])cc21 [Compound 9j]
condition not met

Is GI% at least 20%? Consider COc1ccc(-c2nc3ccccc3s2)cc1OCC(=O)NN=C1C(=O)Nc2ccc([N+](=O)[O-])cc21 [Compound 9p]
condition met

----------
system: M14; assay: NCI 60 panel growth inhibition (SRB), melanoma; type: cell-based, human; settings: M14, 10 μM
Record 1.0 whenever GI% is at 8% or higher; record 0.0 when lower.

// below: answered compounds
CNC(=O)c1nn(C)c2c1C(C)(C)Cc1cnc(Nc3ccc(N4CCN(C)CC4)cc3)nc1-2 [Milciclib, reference compound] = 1.0
COc1ccc2c(c1)C(=NNC(=O)COc1ccccc1-c1nc3ccccc3s1)C(=O)N2 = 0.0
Cc1ccc2c(c1)C(=NNC(=O)COc1ccccc1-c1nc3ccccc3s1)C(=O)N2 = 1.0

Let us examine a further case.
Is GI% at least 8%? Consider COc1cccc(-c2nc3ccccc3s2)c1OCC(=O)NN=C1C(=O)Nc2ccc([N+](=O)[O-])cc21
1.0

----------
system: SN12C; assay: NCI 60 panel growth inhibition (SRB), renal cancer; format: cell-based, human; conditions: 10 μM
Record 1.0 whenever GI% is at 20% or higher; record 0.0 when lower.

// below: answered molecules
COc1cccc(-c2nc3ccccc3s2)c1OCC(=O)NN=C1C(=O)Nc2ccc([N+](=O)[O-])cc21 = 0.0
CNC(=O)c1nn(C)c2c1C(C)(C)Cc1cnc(Nc3ccc(N4CCN(C)CC4)cc3)nc1-2 [Milciclib, reference compound] = 1.0
COc1cccc(-c2nc3ccccc3s2)c1OCC(=O)NN=C1C(=O)Nc2ccc(Cl)cc21 = 0.0

Is GI% at least 20%? Consider O=C(COc1ccccc1-c1nc2ccccc2s1)NN=C1C(=O)Nc2ccccc21
0.0

Is GI% at least 20%? Consider O=C(COc1ccccc1-c1nc2ccccc2s1)NN=C1C(=O)Nc2ccc(Cl)cc21
0.0

Is GI% at least 20%? Consider O=C(COc1ccccc1-c1nc2ccccc2s1)NN=C1C(=O)Nc2ccc(Br)cc21
1.0

Is GI% at least 20%? Consider COc1ccc(-c2nc3ccccc3s2)cc1OCC(=O)NN=C1C(=O)Nc2ccc(Cl)cc21
1.0

----------
tested on: CCRF-CEM; assay: NCI 60 panel growth inhibition (SRB), leukemia; type: cell-based, human; conditions: 10 μM
Parameter: GI% (%)
Field: numeric (%). Do not append units.

Example results:
COc1ccc(-c2nc3ccccc3s2)cc1OCC(=O)NN=C1C(=O)Nc2ccc(C)cc21 [Compound 9n] = 16.11
COc1ccc2c(c1)C(=NNC(=O)COc1c(OC)cccc1-c1nc3ccccc3s1)C(=O)N2 [Compound 9i] = 44.24
COc1ccc2c(c1)C(=NNC(=O)COc1cc(-c3nc4ccccc4s3)ccc1OC)C(=O)N2 [Compound 9o] = 57.64
COc1cccc(-c2nc3ccccc3s2)c1OCC(=O)NN=C1C(=O)Nc2ccc(C)cc21 [Compound 9h] = 47.56
CNC(=O)c1nn(C)c2c1C(C)(C)Cc1cnc(Nc3ccc(N4CCN(C)CC4)cc3)nc1-2 [Milciclib, reference compound] = 89.60
COc1cccc(-c2nc3ccccc3s2)c1OCC(=O)NN=C1C(=O)Nc2ccc([N+](=O)[O-])cc21 [Compound 9j] = 34.81
COc1cccc(-c2nc3ccccc3s2)c1OCC(=O)NN=C1C(=O)Nc2ccc(Cl)cc21 [Compound 9k] = 24.47

Now for a further compound.
What value of measured GI% is listed for COc1cccc(-c2nc3ccccc3s2)c1OCC(=O)NN=C1C(=O)Nc2ccc(Br)cc21 [Compound 9l] ?
15.16
